# EXPERIMENTAL DETAILS: AUC (0 to infinity) in CD-1 mouse at 30 mg/kg, po
# Format: ADME, organism-based
# Set-up: time infinity, dose 30 mg/kg, route oral
# REPORTED CONDITIONS: plasma
ASSAY READOUT: AUC(0-inf) (µM·h)

In [3]: df
Out[3]:
                            compound_smiles  unit_spec  observed
0  N#Cc1ccc(O[C@H]2CC[C@H](NC(=O)CCSc3nc4ccccc4c(=O)[nH]3)CC2)cc1       µM·h       141

(A) O=C(CCSc1nc2ccccc2c(=O)[nH]1)N[C@H]1CC[C@H](c2nnc(-c3ccccc3)o2)CC1
(B) N#Cc1ccc(O[C@H]2CC[C@H](NC(=O)CCSc3nc4ccccc4c(=O)[nH]3)CC2)cc1Cl
(C) O=C(CCSc1nc2c(c(=O)[nH]1)CCCC2)N[C@H]1CC[C@H](c2nnc(-c3ccccc3)o2)CC1
(D) O=C(CCSc1nc2ccccc2c(=O)[nH]1)N[C@H]1CC[C@H](Oc2ccncc2)CC1
Arrange the 4 compounds from largest to smallest AUC(0-inf). In plain terms: list the labels in the order you were asked to.
B, A, D, C

---

# EXPERIMENTAL DETAILS: Inhibition of TNKS in human SW480 cells assessed as accumulation of axin-2 into cytoplasmic foci after 24 hrs by Hoechst dye-based assay
# REPORTED CONDITIONS: SW480, 24 h
ASSAY READOUT: EC50 (nM)

Answered cases to consult:
                            compound_smiles  assay_readout  observed
0  N#Cc1ccc(O[C@H]2CC[C@H](NC(=O)CCSc3nc4ccccc4c(=O)[nH]3)CC2)cc1Cl           EC50       8.4
1  O=C(CCSc1nc2c(c(=O)[nH]1)CCCC2)N[C@H]1CC[C@H](c2nnc(-c3ccccc3)o2)CC1           EC50        14
2  O=C(CCSc1nc2ccccc2c(=O)[nH]1)N[C@H]1CC[C@H](c2nnc(-c3ccccc3)o2)CC1           EC50       3.9
3  O=C(CCc1nc2ccccc2c(=O)[nH]1)Nc1ccc(-c2nnc(-c3ccccc3)o2)cc1           EC50      2450

(I) N#Cc1ccc(O[C@H]2CC[C@H](NC(=O)CCSc3nc4ccccc4c(=O)[nH]3)CC2)cc1
(II) O=C(CCSc1nc2ccccc2c(=O)[nH]1)N[C@H]1CC[C@H](Oc2ccncc2)CC1
(III) O=C(CCc1nc2ccccc2c(=O)[nH]1)N[C@H]1CC[C@H](c2nnc(-c3ccccc3)o2)CC1
List the 3 entries from lowest EC50 to highest EC50 value. In plain terms: list the labels in the order you were asked to.
I, II, III
(I: 4 nM, II: 6.8 nM, III: 640 nM)
